Molecular target: dDATNET (Drosophila melanogaster, UniProt Q7K4Y6, D121G/DEL162-202/F471L/L415A/S426M/V74A)
Construct: GFP-8x-His (C); made in house; host or cells: HEK293S GnTI- cells, BacMam baculovirus transduction
Assay: [3H] nisoxetine binding, scintillation proximity assay, purified dDATNET
Conditions: Nisoxetine Kd, dDATNET
MEASURE: Kd (nM)
Just the number in nM, nothing appended.

Field: Kd (dDATNET (Drosophila melanogaster, UniProt Q7K4Y6, D121G/DEL162-202/F471L/L415A/S426M/V74A)). Entry: CNCCC(Oc1ccccc1OC)c1ccccc1 (stereo not shown)
2.79

###

Target: dDATNET (Drosophila melanogaster, UniProt Q7K4Y6, D121G/DEL162-202/F471L/L415A/S426M/V74A)
Construct: GFP-8x-His (C); made in house; host or cells: HEK293S GnTI- cells, BacMam baculovirus transduction
Assay: [3H] nisoxetine binding, scintillation proximity assay, purified dDATNET
Conditions: dissociation constants (Kd) for nisoxetine, range over the dDAT constructs used in this study (dDATNET, dDATmfc)
MEASURE: Kd

Query (compound): CNCCC(Oc1ccccc1OC)c1ccccc1 (stereo not shown) ; field requested: Kd
2.8 to 3.8 nM

###

Exercise: for every item that follows, state its recorded IC50.
Biological target: dDATfc A428S (Drosophila melanogaster, UniProt Q7K4Y6, A428S/DEL164-191/F471L/L415A/V74A)
Experiment: cell-based

Form field: reported IC50 of CCN(CC)C(=O)[C@]1(c2ccccc2)C[C@@H]1CN
6.6 µM

What value of IC50 has been reported for the following molecule? COc1cccc(C2(O)CCCCC2CN(C)C)c1 (centres unmarked)
50.5 µM

###

Molecular target: dDATmfc (Drosophila melanogaster, UniProt Q7K4Y6, DEL162-202/F471L/L415A/V74A)
Construct: GFP-8x-His (C)
Assay: [3H] nisoxetine binding, scintillation proximity assay, purified dDATmfc
MEASURE: Kd (nM)
# value in nM; strip the unit string

// returns reported Kd for input CNCCC(Oc1ccccc1OC)c1ccccc1 (stereo not shown)
3.82

###

Biological target: dDATfc (Drosophila melanogaster dopamine transporter functional construct) (Drosophila melanogaster, UniProt Q7K4Y6, DEL164-191/F471L/L415A/V74A)
Assay: cell-based
Method: Additional mutations in the subsite B or subsite C were incorporated into this gene used for carrying out the uptake assays. Cells were transiently transfected with pEG-BacMam plasmid harboring the dDAT cGFP gene and incubated for 35–40 hrs at 37 °C with 5% CO2 and 80% humidity. […] Following this, 0.1 ml of the supernatant was added to 0.5 ml of scintillation fluid (Ultima Gold, Perkin Elmer) and the radioactivity was estimated on MicroBeta scintillation counter (Perkin Elmer). […]
MEASURE: pIC50
Scale for pIC50: -log10 of concentration given in mol/L; no unit attached.

What value of measured pIC50 is listed for CCN(CC)C(=O)[C@]1(c2ccccc2)C[C@@H]1CN ?
5.62

So what's the measured pIC50 for this one? COc1cccc(C2(O)CCCCC2CN(C)C)c1 (centres unmarked)
4.61

###

Molecular target: dDATfc A117S/A428S (Drosophila melanogaster, UniProt Q7K4Y6, A117S/A428S/DEL164-191/F471L/L415A/V74A)
Experiment: cell-based
Kindly supply the reported IC50 values for the records listed here.
Quick reminder: number only, in µM, skip the unit.

Looking for the measured IC50 of COc1cccc(C2(O)CCCCC2CN(C)C)c1 (centres unmarked) , can you help?
130

Recorded IC50 of CCN(CC)C(=O)[C@]1(c2ccccc2)C[C@@H]1CN , please.
8.9
